assaySystem: human Aurora Kinase A - serine/threonine-protein Kinase 6 (AurA), AURKA (gene 6790) (UniProt O14965)
Sequence (O14965 whole entry, looked up): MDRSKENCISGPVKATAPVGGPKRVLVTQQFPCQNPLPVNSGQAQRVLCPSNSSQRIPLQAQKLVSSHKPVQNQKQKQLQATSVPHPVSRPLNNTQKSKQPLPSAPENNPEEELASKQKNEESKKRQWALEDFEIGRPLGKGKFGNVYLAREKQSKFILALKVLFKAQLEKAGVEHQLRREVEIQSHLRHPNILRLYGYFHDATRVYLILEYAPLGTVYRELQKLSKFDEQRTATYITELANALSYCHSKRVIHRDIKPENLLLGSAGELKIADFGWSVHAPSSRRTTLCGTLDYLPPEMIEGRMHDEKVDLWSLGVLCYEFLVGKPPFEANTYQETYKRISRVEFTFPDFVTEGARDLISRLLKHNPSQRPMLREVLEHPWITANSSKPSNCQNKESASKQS
testMethodNotes: NVS_ENZ_hAurA: NovaScreen (NVS) Enzymatic Assay for human Aurora Kinase A - serine/threonine-protein Kinase 6 (AurA) (AID 2283142)
Inconclusive results are not listed. The source made the active and inactive calls. How the source made its calls: active means hit-call score of the fitted dose curve at least 0.9, where 1 is the maximum; inconclusive means response in the unintended direction; inactive means score below 0.9.
Classes used: active, inactive

>  <smilesInput>
CCCCCCCCCCCCc1ccccc1S(=O)(=O)O

>  <categoryLabel>
active

$$$$
>  <smilesInput>
CC1=C(/C=C/C(C)=C/C=C/C(C)=C/CO)C(C)(C)CCC1

>  <categoryLabel>
inactive

$$$$
>  <smilesInput>
N[C@@H](Cc1cc(I)c(Oc2ccc(O)c(I)c2)c(I)c1)C(=O)O

>  <categoryLabel>
active

$$$$
>  <smilesInput>
CC=Cc1ccc(O)c(OC)c1

>  <categoryLabel>
inactive

$$$$
>  <smilesInput>
Cc1[nH]nc2c1N=C(c1ccccc1Cl)c1cc([N+](=O)[O-])ccc1N2

>  <categoryLabel>
active

$$$$
>  <smilesInput>
Cc1ccc(N)cc1O

>  <categoryLabel>
inactive

$$$$
>  <smilesInput>
O=C(Nc1ccc([N+](=O)[O-])cc1Cl)c1cc(Cl)ccc1O

>  <categoryLabel>
inactive

$$$$

---

testMethodNotes: IUF_NPC2c_oligodendrocyte_migration_120hr: Leibniz Research Institute for Environmental Medicine (IUF) 120-hour Neural Progenitor Cell Migration Assay for Oligodendrocyte Migration (NPC2c) (AID 2284297);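 further: O4-positive oligodendrocyte migration distance divided by radial glia migration distance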
Active and inactive are the calls of the source. The calls were made as follows: active = hit-call score of the fitted dose curve at least 0.9, where 1 is the maximum; inactive = score below 0.9.
Labels: active, inactive

>  <molecule>
CP(=O)(O)CCC(N)C(=O)O (stereo unspecified)

>  <categoryLabel>
inactive

$$$$
>  <molecule>
CCOP(=O)(OCC)OC(Cl)C(Cl)(Cl)Cl (stereo unspecified)

>  <categoryLabel>
inactive

$$$$
>  <molecule>
CC1(C)C(C=C(Cl)Cl)C1C(=O)O[C@H](C#N)c1cccc(Oc2ccccc2)c1 (stereo partly specified)

>  <categoryLabel>
inactive

$$$$
>  <molecule>
CC1(C)[C@H](C=C(Cl)Cl)[C@H]1C(=O)OCc1c(F)c(F)cc(F)c1F

>  <categoryLabel>
inactive

$$$$
>  <molecule>
Brc1ccc(Oc2cc(Br)c(Br)cc2Br)c(Br)c1

>  <categoryLabel>
inactive

$$$$
>  <molecule>
CNC1(c2ccccc2Cl)CCCCC1=O (stereo unspecified)

>  <categoryLabel>
inactive

$$$$
>  <molecule>
CCOP(=O)(Oc1cnc(C(C)(C)C)nc1)OC(C)C (stereo unspecified)

>  <categoryLabel>
inactive

$$$$
>  <molecule>
CC(=O)[O-].[Tl+]

>  <categoryLabel>
active

$$$$
>  <molecule>
O=C1N[C@@H]2C(=C[C@H](O)[C@@H](O)[C@H]2O)c2cc3c(c(O)c21)OCO3

>  <categoryLabel>
inactive

$$$$
>  <molecule>
O=[As]O

>  <categoryLabel>
inactive

$$$$
>  <molecule>
CC1(C)C(C=C(Cl)c2ccc(Cl)cc2)C1C(=O)OC(C#N)c1ccc(F)c(Oc2ccccc2)c1 (stereo unspecified)

>  <categoryLabel>
inactive

$$$$
>  <molecule>
CC(C)CCCCCCCOP(=O)(Oc1ccccc1)Oc1ccccc1

>  <categoryLabel>
inactive

$$$$
>  <molecule>
Brc1ccc(Oc2ccc(Br)cc2Br)c(Br)c1

>  <categoryLabel>
inactive

$$$$
>  <molecule>
Cc1ccc(OP(=O)(Oc2ccc(C)cc2)Oc2ccc(C)cc2)cc1 (tested in a mixture with another compound)

>  <categoryLabel>
inactive

$$$$
>  <molecule>
C[n+]1ccc(-c2cc[n+](C)cc2)cc1

>  <categoryLabel>
inactive

$$$$
>  <molecule>
C[n+]1ccc(-c2ccccc2)cc1

>  <categoryLabel>
inactive

$$$$
>  <molecule>
C/C(=C/C=C/[C@@H](C)C(=O)O)[C@H]1CN[C@H](C(=O)O)[C@H]1CC(=O)O

>  <categoryLabel>
inactive

$$$$
>  <molecule>
[O-][Cl+3]([O-])([O-])O

>  <categoryLabel>
inactive

$$$$
>  <molecule>
CC1(C)[C@@H](C=C(Cl)Cl)[C@@H]1C(=O)O[C@@H](C#N)c1ccc(F)c(Oc2ccccc2)c1

>  <categoryLabel>
inactive

$$$$
>  <molecule>
CCOP(=O)(OCC)SCSC(C)(C)C

>  <categoryLabel>
inactive

$$$$
>  <molecule>
CC(C)CC(C)c1sccc1NC(=O)c1cn(C)nc1C(F)(F)F (stereo unspecified)

>  <categoryLabel>
inactive

$$$$

---

assaySystem: Cellular tumor antigen p53 (Homo sapiens) (UniProt P04637)
Sequence (P04637 whole entry, looked up): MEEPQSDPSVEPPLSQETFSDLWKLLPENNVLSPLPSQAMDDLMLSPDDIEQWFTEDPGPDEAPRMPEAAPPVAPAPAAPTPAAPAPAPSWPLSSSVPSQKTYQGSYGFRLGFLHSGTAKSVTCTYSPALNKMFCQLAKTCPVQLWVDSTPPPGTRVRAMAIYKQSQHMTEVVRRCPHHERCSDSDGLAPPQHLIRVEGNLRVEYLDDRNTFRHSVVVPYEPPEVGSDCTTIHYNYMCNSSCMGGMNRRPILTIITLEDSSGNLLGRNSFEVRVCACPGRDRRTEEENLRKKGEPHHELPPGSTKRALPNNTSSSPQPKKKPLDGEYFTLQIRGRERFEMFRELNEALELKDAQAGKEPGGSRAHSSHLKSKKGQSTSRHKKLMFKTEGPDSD
testMethodNotes: TOX21_p53_BLA_p3_ratio: Tox21 HCT-116 p53 Agonism Beta-lactamase Assay, Ratio, Phase 3 (AID 2283596)
Results filed as inconclusive are left out. Calls of active or inactive are those of the source. The calls were made as follows: active = hit-call score of the fitted dose curve at least 0.9, where 1 is the maximum; inconclusive = response in the unintended direction; inactive = score below 0.9.
Outcome codes: active, inactive

>  <compound>
N#CC(C#N)=Cc1ccc(O)c(O)c1

>  <assaySystem>
Cellular tumor antigen p53 (Homo sapiens) (UniProt P04637)

>  <categoryLabel>
inactive

$$$$
>  <compound>
CC(C)(O)C(Cl)(Cl)Cl

>  <assaySystem>
Cellular tumor antigen p53 (Homo sapiens) (UniProt P04637)

>  <categoryLabel>
inactive

$$$$
>  <compound>
CCCC(C)(COC(N)=O)COC(=O)NC1CC1 (centres undefined)

>  <assaySystem>
Cellular tumor antigen p53 (Homo sapiens) (UniProt P04637)

>  <categoryLabel>
inactive

$$$$
>  <compound>
CCOP(=O)(OCC)OCC

>  <assaySystem>
Cellular tumor antigen p53 (Homo sapiens) (UniProt P04637)

>  <categoryLabel>
inactive

$$$$
>  <compound>
C[C@H]1[C@@H]2Cc3ccc(O)cc3[C@@]1(C)CCN2C

>  <assaySystem>
Cellular tumor antigen p53 (Homo sapiens) (UniProt P04637)

>  <categoryLabel>
inactive

$$$$
>  <compound>
C=C(Cl)CSC(=S)N(CC)CC

>  <assaySystem>
Cellular tumor antigen p53 (Homo sapiens) (UniProt P04637)

>  <categoryLabel>
inactive

$$$$
>  <compound>
C=CC(=O)OC(C)(C)C

>  <assaySystem>
Cellular tumor antigen p53 (Homo sapiens) (UniProt P04637)

>  <categoryLabel>
inactive

$$$$
>  <compound>
C[C@H]1CC[C@]2(NC1)O[C@H]1C[C@H]3[C@@H]4CC[C@H]5C[C@@H](O[C@@H]6O[C@H](CO)[C@H](O[C@@H]7O[C@H](CO)[C@@H](O)[C@H](O[C@@H]8OC[C@@H](O)[C@H](O)[C@H]8O)[C@H]7O[C@@H]7O[C@H](CO)[C@@H](O)[C@H](O)[C@H]7O)[C@H](O)[C@H]6O)CC[C@]5(C)[C@H]4CC[C@]3(C)[C@H]1[C@@H]2C

>  <assaySystem>
Cellular tumor antigen p53 (Homo sapiens) (UniProt P04637)

>  <categoryLabel>
active

$$$$
>  <compound>
CC(=O)O[C@H]1CC[C@H]2[C@@H]3CCC4=CC(=O)CCC4=C3C=C[C@]12C

>  <assaySystem>
Cellular tumor antigen p53 (Homo sapiens) (UniProt P04637)

>  <categoryLabel>
inactive

$$$$

---

assaySystem: Estrogen receptor (Homo sapiens)
testMethodNotes: NVS_NR_hER: NovaScreen (NVS) Nuclear Receptor Binding Assay for human Estrogen Receptor (ER) (AID 2283348)
Results filed as inconclusive are left out. The source made the active and inactive calls. The calls were made as follows: active = hit-call score of the fitted dose curve at least 0.9, where 1 is the maximum; inconclusive = response in the unintended direction; inactive = score below 0.9.
Labels: 1 (yes) = active, 0 (no) = inactive

>  <compound>
O=[N+]([O-])c1cc(C(F)(F)F)c(Cl)c([N+](=O)[O-])c1Cl

>  <categoryLabel>
0 (no)

$$$$
>  <compound>
c1coc(-c2nc3ccccc3[nH]2)c1

>  <categoryLabel>
0 (no)

$$$$
>  <compound>
CCOP(=O)(Sc1ccccc1)Sc1ccccc1

>  <categoryLabel>
0 (no)

$$$$
>  <compound>
O=C(O)c1cc[c]([Hg][Cl])cc1

>  <categoryLabel>
0 (no)

$$$$
>  <compound>
N#Cc1sc2c(=O)c3ccccc3c(=O)c=2sc1C#N

>  <categoryLabel>
1 (yes)

$$$$
>  <compound>
C=CC(=O)OCCCCO

>  <categoryLabel>
0 (no)

$$$$
>  <compound>
CCCCOP(=O)(O)OCCCC

>  <categoryLabel>
0 (no)

$$$$
>  <compound>
COP(=S)(NC(C)C)Oc1ccc(C)cc1[N+](=O)[O-] (stereo not given)

>  <categoryLabel>
1 (yes)

$$$$
>  <compound>
COc1cc(OC)c(OC)cc1C=O

>  <categoryLabel>
0 (no)

$$$$
>  <compound>
CC(C)OC(=O)C(O)(c1ccc(Cl)cc1)c1ccc(Cl)cc1

>  <categoryLabel>
0 (no)

$$$$
>  <compound>
COC(=O)C(C)N(C(=O)Cc1ccccc1)c1c(C)cccc1C (stereo not given)

>  <categoryLabel>
0 (no)

$$$$
>  <compound>
OC(c1ccc(F)cc1)(c1cncnc1)c1ccccc1Cl (stereo not given)

>  <categoryLabel>
1 (yes)

$$$$
>  <compound>
O=C1C(Cl)=C(Cl)C(=O)C(Cl)=C1Cl

>  <categoryLabel>
0 (no)

$$$$
>  <compound>
c1cc(OCC2CO2)ccc1Cc1ccc(OCC2CO2)cc1 (stereo not given)

>  <categoryLabel>
0 (no)

$$$$
>  <compound>
CC(Oc1ccc(Oc2ncc(C(F)(F)F)cc2Cl)cc1)C(=O)O (stereo not given)

>  <categoryLabel>
0 (no)

$$$$
